Tested on: U251 CNS
Experiment: NCI-60 one-dose screen, 48 h
Conditions: 10 µM unless noted
This is part of a sample that, as a whole, favours compounds with a hit. Of some 83,000 tested, about 20% had one in any assay. The source made the active and inactive calls. Rule for the calls: active = growth percent below 10; inactive = the rest.
Answer with one of the outcomes given here: TRUE = active, FALSE = inactive

molecule	qualitative.label
Nc1ccc2c(c1)oc1ccccc12	FALSE

Challenge: Assay result, entry `ClC1=C(Cl)C(Cl)(C2(Cl)C(Cl)=C(Cl)C(Cl)=C2Cl)C(Cl)=C1Cl` — outcome?
Response given: TRUE

Challenge: Also, `Nc1ncnc2n[nH]nc12` please.
Response given: FALSE

Challenge: Also, `Cc1ccc(N2COOC3(OOC2)C2CC4CC(C2)CC3C4)cc1` please.
Response given: FALSE
